Data provenance: patent US4705786A

# TARGET_OR_SYSTEM: isolated strips of the descending aorta (Rattus norvegicus, UniProt P22002)
# Sequence (P22002 whole entry): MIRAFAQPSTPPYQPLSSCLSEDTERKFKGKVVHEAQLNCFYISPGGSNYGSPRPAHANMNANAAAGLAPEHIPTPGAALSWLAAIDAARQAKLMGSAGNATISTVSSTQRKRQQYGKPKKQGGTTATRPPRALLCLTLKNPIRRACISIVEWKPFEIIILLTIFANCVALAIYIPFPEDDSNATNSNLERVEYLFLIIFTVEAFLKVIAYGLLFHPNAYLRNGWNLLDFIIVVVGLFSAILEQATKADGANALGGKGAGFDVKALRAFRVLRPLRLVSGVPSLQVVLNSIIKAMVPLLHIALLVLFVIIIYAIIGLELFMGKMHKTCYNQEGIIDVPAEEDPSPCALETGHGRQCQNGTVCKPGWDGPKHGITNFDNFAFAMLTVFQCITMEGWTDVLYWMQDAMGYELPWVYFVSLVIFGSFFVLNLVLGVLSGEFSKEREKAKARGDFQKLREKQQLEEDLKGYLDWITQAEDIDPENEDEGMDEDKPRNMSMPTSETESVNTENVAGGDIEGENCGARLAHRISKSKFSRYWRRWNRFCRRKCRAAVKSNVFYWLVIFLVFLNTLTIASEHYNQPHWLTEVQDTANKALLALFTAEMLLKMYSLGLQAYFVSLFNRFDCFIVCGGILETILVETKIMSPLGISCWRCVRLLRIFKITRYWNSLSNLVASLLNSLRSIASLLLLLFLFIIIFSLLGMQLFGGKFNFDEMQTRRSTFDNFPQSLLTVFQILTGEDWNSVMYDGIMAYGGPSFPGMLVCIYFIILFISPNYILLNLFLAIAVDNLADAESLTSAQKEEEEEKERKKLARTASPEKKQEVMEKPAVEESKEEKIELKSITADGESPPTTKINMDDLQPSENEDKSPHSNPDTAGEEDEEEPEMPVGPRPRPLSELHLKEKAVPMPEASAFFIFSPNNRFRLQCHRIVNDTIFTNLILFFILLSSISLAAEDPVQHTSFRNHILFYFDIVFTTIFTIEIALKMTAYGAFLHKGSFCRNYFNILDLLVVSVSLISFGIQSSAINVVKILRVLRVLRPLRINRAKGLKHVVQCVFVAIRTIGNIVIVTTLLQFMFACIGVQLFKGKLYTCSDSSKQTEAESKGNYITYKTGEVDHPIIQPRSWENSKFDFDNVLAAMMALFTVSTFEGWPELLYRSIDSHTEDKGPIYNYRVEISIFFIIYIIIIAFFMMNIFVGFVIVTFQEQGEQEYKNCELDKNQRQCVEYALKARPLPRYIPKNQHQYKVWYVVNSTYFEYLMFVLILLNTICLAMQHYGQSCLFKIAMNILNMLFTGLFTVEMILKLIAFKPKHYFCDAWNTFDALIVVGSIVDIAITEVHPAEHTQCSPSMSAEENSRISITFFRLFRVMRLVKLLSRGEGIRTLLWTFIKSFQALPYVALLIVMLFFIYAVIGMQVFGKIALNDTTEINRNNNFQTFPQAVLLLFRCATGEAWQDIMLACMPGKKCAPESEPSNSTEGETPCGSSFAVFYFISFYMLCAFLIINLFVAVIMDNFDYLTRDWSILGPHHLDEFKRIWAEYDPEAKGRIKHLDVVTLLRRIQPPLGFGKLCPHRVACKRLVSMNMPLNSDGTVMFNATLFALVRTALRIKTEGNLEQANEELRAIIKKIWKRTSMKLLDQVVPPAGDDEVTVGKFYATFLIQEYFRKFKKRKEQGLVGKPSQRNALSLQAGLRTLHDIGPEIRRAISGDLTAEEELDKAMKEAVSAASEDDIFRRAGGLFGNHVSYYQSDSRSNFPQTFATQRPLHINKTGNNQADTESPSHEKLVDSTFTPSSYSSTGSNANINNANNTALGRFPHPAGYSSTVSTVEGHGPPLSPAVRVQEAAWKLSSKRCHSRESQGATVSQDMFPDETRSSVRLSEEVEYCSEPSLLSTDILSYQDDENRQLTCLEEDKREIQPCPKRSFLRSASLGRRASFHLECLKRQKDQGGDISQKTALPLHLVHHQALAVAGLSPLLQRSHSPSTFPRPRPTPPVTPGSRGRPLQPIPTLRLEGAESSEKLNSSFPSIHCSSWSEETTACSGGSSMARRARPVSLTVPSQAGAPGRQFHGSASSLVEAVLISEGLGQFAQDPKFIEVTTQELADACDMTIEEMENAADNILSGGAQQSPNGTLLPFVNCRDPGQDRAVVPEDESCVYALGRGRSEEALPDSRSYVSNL
# Sequence (P54290 25-944 partner limits assumed): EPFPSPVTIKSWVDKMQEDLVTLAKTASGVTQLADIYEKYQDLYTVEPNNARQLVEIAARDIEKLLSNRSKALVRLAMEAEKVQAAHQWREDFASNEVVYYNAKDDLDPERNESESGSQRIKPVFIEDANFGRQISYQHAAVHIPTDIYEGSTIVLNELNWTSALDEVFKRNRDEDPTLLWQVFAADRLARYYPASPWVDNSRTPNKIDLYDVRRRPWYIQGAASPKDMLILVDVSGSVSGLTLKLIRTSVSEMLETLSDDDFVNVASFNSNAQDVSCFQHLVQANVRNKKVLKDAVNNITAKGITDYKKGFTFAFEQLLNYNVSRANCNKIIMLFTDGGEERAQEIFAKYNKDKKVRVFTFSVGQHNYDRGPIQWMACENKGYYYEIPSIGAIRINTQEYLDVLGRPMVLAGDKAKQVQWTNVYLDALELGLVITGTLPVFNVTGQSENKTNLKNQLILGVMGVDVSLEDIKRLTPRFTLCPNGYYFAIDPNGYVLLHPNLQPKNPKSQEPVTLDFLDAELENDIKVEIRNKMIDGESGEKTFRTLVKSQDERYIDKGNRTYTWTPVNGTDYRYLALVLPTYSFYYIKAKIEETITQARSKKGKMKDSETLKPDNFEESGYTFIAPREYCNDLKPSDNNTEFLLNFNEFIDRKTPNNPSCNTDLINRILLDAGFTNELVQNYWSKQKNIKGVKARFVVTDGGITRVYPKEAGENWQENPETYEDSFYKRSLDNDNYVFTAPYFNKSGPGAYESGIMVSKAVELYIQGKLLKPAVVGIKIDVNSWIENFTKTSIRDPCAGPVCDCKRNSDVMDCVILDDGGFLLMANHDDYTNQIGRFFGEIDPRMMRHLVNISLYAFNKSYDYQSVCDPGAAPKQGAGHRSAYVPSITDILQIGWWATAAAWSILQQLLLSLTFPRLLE
# Sequence (P54290 945-1091 partner limits assumed): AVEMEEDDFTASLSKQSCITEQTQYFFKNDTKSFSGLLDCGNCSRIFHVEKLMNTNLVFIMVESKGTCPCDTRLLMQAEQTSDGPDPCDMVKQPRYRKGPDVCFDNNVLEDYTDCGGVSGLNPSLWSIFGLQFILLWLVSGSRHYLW
# ASSAY_METHOD_TEXT: cell-based
# Design: species or system Male Wistar rats
# CONDITION_SUMMARY: isolated rat aorta, Ca2+ dose-response curves in 25 mM K+, Arunlakshana method; read-out: pA2 (converted)
Structures can show the parent of a compound that is named as a salt.
MEASURED_PROPERTY: Kb (nM)

CC1=C(C(=O)OC(C)C)C(c2cccc([N+](=O)[O-])c2)C(c2nc(CN(C)Cc3ccccc3)no2)=C(C)N1 (centres unmarked) [G, hydrochloride] : 0.355

1: COC(=O)C1=C(C)NC(C)=C(c2nc(CN3CCCCC3)no2)C1c1ccccc1 (centres unmarked) [B, hydrochloride]
2: COC(=O)C1=C(C)NC(C)=C(c2nc(CN(C)CCc3ccc(OC)c(OC)c3)no2)C1c1cccc([N+](=O)[O-])c1 (centres unmarked) [F, hydrochloride]
Please state the entry with greater Kb among 1 and 2 . Your choice should be expressed through its label. 1

P: COC(=O)C1=C(C)NC(C)=C(C(=O)OCCN(C)Cc2ccccc2)C1c1cccc([N+](=O)[O-])c1 (centres unmarked) [Compound R3, reference compound]
Q: COC(=O)C1=C(C)NC(C)=C(c2nc(CN3CCCCC3)no2)C1c1cccc([N+](=O)[O-])c1 (centres unmarked) [A, hydrochloride]
Please state the entry with greater Kb among P and Q . Your choice should be expressed through its label. P

====

# TARGET_OR_SYSTEM: isolated strips of the descending aorta (Rattus norvegicus)
# ASSAY_METHOD_TEXT: cell-based
# Set-up: species or system Male Wistar rats
# CONDITION_SUMMARY: isolated rat aorta, Ca2+ dose-response curves in 25 mM K+, Arunlakshana method; read-out: pA2 (converted)
Where a name gives a salt, the structure may show the parent alone.
MEASURED_PROPERTY: Kb (pM)

Example cases with answers are listed next.
COC(=O)C1=C(C)NC(C)=C(c2nc(CN3CCCCC3)no2)C1c1ccc(Cl)c(Cl)c1 (stereo not shown) [C, hydrochloride] : 129
COC(=O)C1=C(C)NC(C)=C(c2nc(CNC(C)c3ccccc3)no2)C1c1cccc([N+](=O)[O-])c1 (stereo not shown) [E, citrate] : 45.7

A: COC(=O)C1=C(C)NC(C)=C(c2nc(CN(C)Cc3ccccc3)no2)C1c1cccc([N+](=O)[O-])c1 (stereo not shown) [D, hydrochloride]
B: COC(=O)C1=C(C)NC(C)=C(c2nc(C)no2)C1c1cccc([N+](=O)[O-])c1 (stereo not shown) [Compound R1, reference compound]
Please state the entry with greater Kb among A and B . Your choice should be expressed through its label. B
